system: TGF-β-stimulated SMAD3 phosphorylation in BEAS-2B cells; assay: Cellular ALK5 potency assay, inhibition of TGF-β stimulated pSMAD3 formation in BEAS-2B cells; assay type: cell-based; settings: Homo sapiens, inhibition of TGF-β (10 ng/mL) stimulated pSMAD3 formation, 1 hour compound incubation, read-out: BEAS2B pIC50 (converted)
quantity: IC50

Examples with their reported IC50 follow.
chemical.smiles	IC50
CNCCn1cc(-c2cnc3ccc(-c4c(-c5cc(Cl)ccc5F)nc5ccccn45)cc3c2)cn1	25.1 to 158 nM
NC1CCN(c2cnc3ccc(-c4c[nH]nc4-c4cc(Cl)ccc4F)nc3c2)CC1	25.1 to 158 nM

Record Fc1ccc(Cl)cc1-c1n[nH]cc1-c1ccc2ncc(-c3[nH]nc4c3CCNC4)cc2n1 , field IC50: 25.1 to 158 nM

# compound CC(C)NC(=O)[C@H]1CN(c2cnc3ccc(-c4c[nH]nc4-c4cc(Cl)ccc4F)nc3c2)CCN1 ; its IC50 = 25.1 to 158 nM

---

Target: recombinant human ALK5 (TGF-βR1) protein (Homo sapiens, UniProt P36897)
Sequence (P36897 34-503): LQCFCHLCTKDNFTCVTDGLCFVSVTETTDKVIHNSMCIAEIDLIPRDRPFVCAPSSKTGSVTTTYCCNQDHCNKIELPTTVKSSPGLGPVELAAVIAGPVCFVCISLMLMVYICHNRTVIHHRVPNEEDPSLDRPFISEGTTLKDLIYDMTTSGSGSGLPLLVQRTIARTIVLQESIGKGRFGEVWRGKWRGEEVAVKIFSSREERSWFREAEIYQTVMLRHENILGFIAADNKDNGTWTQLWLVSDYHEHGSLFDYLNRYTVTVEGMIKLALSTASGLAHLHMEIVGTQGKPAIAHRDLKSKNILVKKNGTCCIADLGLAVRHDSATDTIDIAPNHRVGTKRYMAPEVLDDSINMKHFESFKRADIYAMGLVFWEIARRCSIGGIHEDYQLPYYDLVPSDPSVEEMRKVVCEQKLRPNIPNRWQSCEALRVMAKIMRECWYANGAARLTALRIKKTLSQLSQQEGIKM
Experiment: Biochemical ALK5 (TGF-βR1) assay to measure pKi (LANCE Ultra ULight kinase assay)
Details: apparent pKi, converted from pIC50 using the Cheng-Prusoff equation
Method: Example 254: Biochemical ALK5 (TGF-βR1) Assay to Measure pKi The assays were performed in a 384-well plate (24 columns×16 wells/rows). […] For dose-response analyses, percent inhibition versus compound concentrations were plotted, and pIC50 values were determined from a 4-parameter robust fit model with GraphPad Prism V5 Software (GraphPad Software, Inc., La Jolla, Calif.). […]
pKi: −log10 of the molar value.
quantity: pKi

Some entries whose results are on file:
molecule	pKi
Fc1ccc(Cl)cc1-c1nc2ccccn2c1-c1ccc2ncc(N3CCCNCC3)cc2n1	9.50 to 10.40
Fc1cc(F)c(-c2n[nH]cc2-c2ccc3ncc(-c4ncc5n4CCN5)cc3n2)cc1Cl	7.50 to 8.40
Fc1cc(F)c(-c2n[nH]cc2-c2ccc3ncc(-c4nc(C(F)(F)F)n5c4CNCC5)cc3n2)cc1Cl	7.50 to 8.40
NCCn1cc(-c2cnc3ccc(-c4c[nH]nc4-c4cc(Cl)c(F)cc4F)nc3c2)cn1	≥ 10.50

// field: pKi; key: Fc1ccc(Cl)cc1-c1nc2ccccn2c1-c1ccc2ncc(N3CCCNCC3)cc2c1 ; value = 8.50 to 9.40

Sample Fc1cc(F)c(-c2n[nH]cc2-c2ccc3ncc(NCC4CCCN4)cc3n2)cc1Cl (racemic) ; pKi observed: 8.50 to 9.40

The measured pKi associated with CN(C)C(=O)[C@H]1CN(c2cnc3ccc(-c4c[nH]nc4-c4cc(Cl)ccc4F)nc3c2)CCN1 reads 8.50 to 9.40

---

tested on: TGF-β-stimulated SMAD3 phosphorylation in BEAS-2B cells; assay: Cellular ALK5 potency assay, inhibition of TGF-β stimulated pSMAD3 formation in BEAS-2B cells; type: cell-based; details: Homo sapiens, inhibition of TGF-β (10 ng/mL) stimulated pSMAD3 formation, 1 hour compound incubation, read-out: BEAS2B pIC50 (converted)
quantity: IC50

Below: 2 compounds and their reported IC50.
chemical.smiles	IC50
CNCCn1cc(-c2cnc3ccc(-c4c(-c5cc(Cl)ccc5F)[nH]c5cccnc45)cc3c2)cn1	200 to 1260 nM
Fc1ccc(Cl)cc1-c1[nH]cnc1-c1ccc2ncc(Nc3ccc(N4CCN(Cc5ccccc5)CC4)cn3)cc2n1	25.1 to 158 nM

Noted IC50 for CC(C)N1CCN(c2ccc(Nc3cnc4ccc(-c5c[nH]nc5-c5cc(Cl)ccc5F)nc4c3)nc2)CC1 , tested on TGF-β-stimulated SMAD3 phosphorylation in BEAS-2B cells: 25.1 to 158 nM

Readout IC50 for CNCCn1cc(-c2cnc3ccc(-c4c[nH]nc4-c4cc(Cl)ccc4F)nc3c2)cn1 , test system TGF-β-stimulated SMAD3 phosphorylation in BEAS-2B cells, was ≤ 20 nM

The reported measurements were obtained from patent US11730720B2.
